# credit: PubChem BioAssay (NCI)

Test: NCI Yeast Anticancer Drug Screen. Data for the cln2 rad14 strain (AID 165)
Conditions: S. cerevisiae cln2 rad14 strain, at 50.0 µM
The panel holds about 79,000 compounds, 15% with a hit somewhere; the sample as a whole holds those more often. The source made the active and inactive calls. No stated cut-off is given here; in the data, active means growth inhibition above about 70%; inactive means the rest.
Labels: active, inactive

Molecule: c1ccc(B2OC(c3ccccc3)C(c3ccccc3)O2)cc1 (stereo unspecified)
Category label: inactive
--
Molecule: C=C1C(=O)O[C@H]2C3C(=C(C)CC[C@@H]12)C(=O)[C@@H]1OC31C (stereo partly specified)
Category label: inactive
--
Molecule: N#CC(c1ccc(Cl)cc1)c1ccc([N+](=O)[O-])cc1 (stereo unspecified)
Category label: inactive
--
Molecule: COc1ccc(NNC(=O)c2ccccc2)cc1
Category label: active
--
Molecule: CCN(CC)CCOC(=O)C1CCCCC1C(=O)C1CCCCC1 (stereo unspecified)
Category label: inactive
--
Molecule: COc1cc(Nc2ccc(Oc3ccc(O)cc3)cc2)c2ncccc2c1
Category label: inactive
--
Molecule: COc1ccc(C(CC(=O)c2ccc(C)cc2)Sc2ccccc2N)cc1 (stereo unspecified)
Category label: inactive
--
Molecule: CC(C)NCCCNc1nc(NCCCNC(C)C)c2nc(-c3ccccc3)c(-c3ccccc3)nc2n1
Category label: inactive
--
Molecule: CC1=CC(=O)C(O)=C/C1=C\C=C\c1ccccc1
Category label: active
--
Molecule: Cc1ccc(Cc2n[nH]c(=O)n2N2C(=O)c3ccccc3C2=O)cc1
Category label: inactive
--
Molecule: O=C(CNS(=O)(=O)Cc1ccccc1)NCC(=O)NNc1ccccc1
Category label: inactive
